assay-name: Mycobacterium tuberculosis growth inhibition, primary screen (AID 1259343)
run-parameters: at 10 µM
The campaign covered roughly 6,200 compounds. About 2,900 (47%) were called active. Cut-off read from the data, not from the text of the source: active = inhibition above about 50%; inactive = the rest. So high a share suggests a set chosen from earlier hits. This is one part of the list.
Outcomes: active, inactive

>  <molecule>
Fc1ccccc1-n1cc(-c2ccnc(NC3CCC3)n2)cn1

>  <class-assignment>
inactive

$$$$
>  <molecule>
C=CC[P+](N(CCC)CCC)(N(CCC)CCC)N(CCC)CCC

>  <class-assignment>
active

$$$$
>  <molecule>
O=C(CC(Nc1ccc2ccccc2c1)c1ccncc1)c1ccccc1 (stereo not given)

>  <class-assignment>
active

$$$$
>  <molecule>
OC(C#Cc1ccccc1)C#CC(O)(c1ccccc1)c1ccccc1 (stereo not given)

>  <class-assignment>
inactive

$$$$
>  <molecule>
COc1ccc(N=Cc2cc([N+](=O)[O-])ccc2OC(F)F)cc1

>  <class-assignment>
active

$$$$
